Numbers sourced from paper PMC5388391.

Molecular target: KLF1 zinc finger domain (WT) (mouse (murine), UniProt P46099 243-358)
Sequence (P46099 243-358): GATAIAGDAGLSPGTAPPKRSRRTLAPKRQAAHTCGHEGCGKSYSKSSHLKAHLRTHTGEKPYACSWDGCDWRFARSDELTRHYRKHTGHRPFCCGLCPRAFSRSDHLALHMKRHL
Assay: fluorescence polarization
test-readout: Kd (nM)
Lab book: enter the figure in nM, no units written.

Form: binder = Alas2_fp (CG) (dsDNA, 5' fluorescein-dT (/5FluorT/) preceding S51, written as T) DNA 1: TTCTCTCCCACGCCCTGGGCTC DNA 2: GAGCCCAGGGCGTGGGAGAGA ; Kd = 150
